Attribution: patent US20250268826A1

assay: LNP size and polydispersity index (PDI) by dynamic light scattering (DLS); format: physicochemical; details: Table 9; LNP Lipid:DSPC:Cholesterol:DMG-PEG2k 50:10:38.5:1.5 mol %; hEPO mRNA; N:P 6
Listed here are molecules together with their documented Size.
Please reply with the bare figure in nm and do not write the unit itself.

Example molecules with recorded Size:
>>> obs_value("CCCCCCCCC(CCCCCC)C(=O)OCCN(CCOC(=O)C(CCCCCC)CCCCCCCC)C(=O)CN(CC)CC.Cl (stereo not shown)")
82.1
>>> obs_value("CCCCCCCCC(CCCCCC)C(=O)OCCN(CCOC(=O)C(CCCCCC)CCCCCCCC)C(=O)CN1CCCC1.Cl (stereo not shown) [Compound 960c]")
88
>>> obs_value("CCCCCCCCC(CCCCCC)C(=O)OCCN(CCOC(=O)C(CCCCCC)CCCCCCCC)C(=O)CN(C)CCC.Cl (stereo not shown)")
70
>>> obs_value("CCCCCCCCC(CCCCCC)C(=O)OCCN(CCOC(=O)C(CCCCCC)CCCCCCCC)C(=O)CN(C)CCO.Cl (stereo not shown) [Compound 960g]")
72.6
>>> obs_value("CCCCCCCC(CCCCCCC)C(=O)OCCN(CCOC(=O)C(CCCCCCC)CCCCCCC)C(=O)CN(C)C.Cl")
74.9

Quick note, Size for CCCCCCCCC(CCCCCC)C(=O)OCCN(CCOC(=O)C(CCCCCC)CCCCCCCC)C(=O)CN1CCCCC1.Cl (stereo not shown) [Compound 960d] landed at 74.5

Quick note, Size for CCCCCCCCCCCOC(=O)CCCCCN(CCO)CCCCCCCC(=O)OC(CCCCCCCC)CCCCCCCC [SM-102, reference compound] landed at 80.7
